target_system: recombinant human MGAT2 (Homo sapiens (Human))
measurement_notes: Measurement of human MGAT2 inhibitory activity
Type: biochemical
experimental_parameters: read-out: IC50 (concentration exhibiting 50% enzyme inhibition), Table 53
attribute_measured: IC50 (nM)

>  <cpd_smiles>
Cc1cc(-n2nc3c(c2NC(=O)CS(C)(=O)=O)C(=O)N[C@@]2(CCc4cc(OCC(F)(F)F)ccc42)C3)ccc1C#N

>  <attribute_measured>
IC50

>  <observed_result>
12.3

$$$$

1. Cc1ccc(-n2nc3c(c2NC(=O)C2CS(=O)(=O)C2)C(=O)N[C@@]2(CCOc4cc(OCC(F)(F)F)ccc42)C3)nc1
2. CS(=O)(=O)CC(=O)Nc1c2c(nn1CCC1CC1)C[C@]1(CCc3c1ccc(OCC(F)(F)F)c3F)NC2=O
3. Cc1ccc(-n2nc3c(c2C(=O)NCC2(CO)CC2)C(=O)N[C@@]2(CCc4cc(OCC(F)(F)F)ccc42)C3)nc1
Task field, ranking: reported IC50, descending order. Write the labels in rank order as requested.
2, 3, 1
(2: 20.8 nM, 3: 4.18 nM, 1: 1.26 nM)

----------
target_system: hERG channel (IKr) (Homo sapiens (Human))
Sequence (Q12809 whole entry): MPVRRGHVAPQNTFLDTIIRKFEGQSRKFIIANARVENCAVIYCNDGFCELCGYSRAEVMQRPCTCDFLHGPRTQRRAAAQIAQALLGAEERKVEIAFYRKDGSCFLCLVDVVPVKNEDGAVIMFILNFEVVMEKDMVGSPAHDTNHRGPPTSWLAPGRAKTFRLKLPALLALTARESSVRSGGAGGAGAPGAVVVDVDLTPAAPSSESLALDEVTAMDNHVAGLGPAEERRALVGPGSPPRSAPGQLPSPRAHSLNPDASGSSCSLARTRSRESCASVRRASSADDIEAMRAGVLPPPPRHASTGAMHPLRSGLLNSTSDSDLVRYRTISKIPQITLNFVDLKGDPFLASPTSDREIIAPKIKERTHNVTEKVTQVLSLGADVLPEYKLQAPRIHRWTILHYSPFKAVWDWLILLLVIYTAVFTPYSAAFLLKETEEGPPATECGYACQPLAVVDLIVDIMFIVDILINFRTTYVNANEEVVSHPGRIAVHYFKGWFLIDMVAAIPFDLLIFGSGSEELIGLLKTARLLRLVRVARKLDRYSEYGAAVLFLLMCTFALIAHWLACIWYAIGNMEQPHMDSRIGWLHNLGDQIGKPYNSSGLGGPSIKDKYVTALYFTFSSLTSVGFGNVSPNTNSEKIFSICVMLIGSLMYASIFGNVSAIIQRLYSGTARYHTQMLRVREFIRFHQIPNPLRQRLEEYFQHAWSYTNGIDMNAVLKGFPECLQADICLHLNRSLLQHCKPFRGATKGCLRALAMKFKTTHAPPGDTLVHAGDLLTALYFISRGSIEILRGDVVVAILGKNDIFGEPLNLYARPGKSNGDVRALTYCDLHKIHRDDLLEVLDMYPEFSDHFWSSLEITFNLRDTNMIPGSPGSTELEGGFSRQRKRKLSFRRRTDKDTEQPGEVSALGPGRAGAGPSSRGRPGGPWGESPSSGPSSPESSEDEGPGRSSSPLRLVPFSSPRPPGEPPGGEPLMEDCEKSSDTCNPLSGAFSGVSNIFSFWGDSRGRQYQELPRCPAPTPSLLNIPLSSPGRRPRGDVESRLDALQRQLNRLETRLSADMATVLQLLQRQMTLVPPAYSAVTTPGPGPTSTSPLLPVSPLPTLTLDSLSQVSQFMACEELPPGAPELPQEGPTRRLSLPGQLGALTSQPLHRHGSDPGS
measurement_notes: hERG test
Type: cell-based
experimental_parameters: pH 7.4, CHO cells expressing hERG channel, 10 μmol/L of test compound, read-out: % inhibition of tail peak current (IKr)
attribute_measured: inhibition at 10 min, 10 μmol/L (%)
Report the figure in % without appending any unit label.

Determine reported inhibition at 10 min, 10 μmol/L for CS(=O)(=O)CC(=O)Nc1c2c(nn1CCCOC(F)(F)F)C[C@]1(CCc3cc(OCC(F)(F)F)ccc31)NC2=O [Compound I-253] ; test system: hERG channel (IKr) (Homo sapiens (Human)).
6.9

----------
target_system: recombinant human MGAT2 (Homo sapiens (Human), UniProt Q3SYC2)
Sequence (Q3SYC2 whole entry): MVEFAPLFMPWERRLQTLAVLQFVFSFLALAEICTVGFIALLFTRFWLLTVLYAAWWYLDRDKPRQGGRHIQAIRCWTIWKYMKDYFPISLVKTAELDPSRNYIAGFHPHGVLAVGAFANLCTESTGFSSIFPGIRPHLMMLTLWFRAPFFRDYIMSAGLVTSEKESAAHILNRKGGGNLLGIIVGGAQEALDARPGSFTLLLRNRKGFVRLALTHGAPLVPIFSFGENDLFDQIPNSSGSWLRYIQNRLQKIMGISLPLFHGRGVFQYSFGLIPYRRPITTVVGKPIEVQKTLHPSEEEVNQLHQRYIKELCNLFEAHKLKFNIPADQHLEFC
measurement_notes: Measurement of human MGAT2 inhibitory activity
Assay type: biochemical
experimental_parameters: read-out: IC50 (concentration exhibiting 50% enzyme inhibition), Table 53
pIC50: −log10 of the molar value.
attribute_measured: pIC50

a. CS(=O)(=O)CC(=O)Nc1c2c(nn1-c1ccc(C#N)cn1)C[C@]1(CCc3cc(OCC(F)(F)F)ccc31)NC2=O [II-143]
b. N#Cc1ccc(-n2nc3c(c2C(=O)NCC2(CO)CCC2)C(=O)N[C@@]2(CCc4cc(OCC(F)(F)F)ccc42)C3)nc1 [II-116]
c. Cc1ccc(-n2nc3c(c2C(=O)NCCS(N)(=O)=O)C(=O)N[C@@](c2ccc(OCC(F)(F)F)cc2F)(C(F)(F)F)C3)nc1 [II-242]
I'd appreciate it if you sorted the entries above by their pIC50, lowest to highest. Write the labels in rank order as requested.
c, b, a

----------
target_system: recombinant human MGAT2 (Homo sapiens (Human), UniProt Q3SYC2)
measurement_notes: Measurement of human MGAT2 inhibitory activity
Format: biochemical
experimental_parameters: read-out: IC50 (concentration exhibiting 50% enzyme inhibition), Table 52
attribute_measured: IC50 (nM)

These recorded examples may help you get a feel for the data.
>  <compound>
CS(=O)(=O)CC(=O)Nc1c2c(nn1-c1cccc(OC(F)(F)F)c1)C[C@]1(CCc3cc(OCC(F)(F)F)ccc31)NC2=O [Compound I-126]

>  <attribute_measured>
IC50

>  <observed_result>
710

$$$$
>  <compound>
CS(=O)(=O)CC(=O)Nc1nn(CC2CCC(C(F)(F)F)CC2)c2c1C(=O)N[C@@]1(CCc3cc(OCCCC(F)(F)F)ccc31)C2 (stereo partly drawn) [Compound I-73]

>  <attribute_measured>
IC50

>  <observed_result>
290

$$$$
>  <compound>
O=C(NCc1c2c(nn1CCC1CC1)C[C@]1(CCc3cc(OCC(F)(F)F)ccc31)NC2=O)c1cnco1 [Compound I-159]

>  <attribute_measured>
IC50

>  <observed_result>
600

$$$$
>  <compound>
O=C1N[C@@]2(CCc3cc(OCC(F)(F)F)ccc32)Cc2nn(CCC3CC3)c(C(=O)NS(=O)(=O)Cc3ccccc3)c21 [Compound I-119]

>  <attribute_measured>
IC50

>  <observed_result>
150

$$$$

P. CS(=O)(=O)CC(=O)Nc1c2c(nn1CCC1CC1)C[C@]1(CCc3cc(C4CC4)ccc31)NC2=O [Compound I-3]
Q. CS(=O)(=O)CC(=O)Nc1nn(CCCC(F)(F)F)c2c1C(=O)N[C@@]1(CCc3cc(OCCCC(F)(F)F)ccc31)C2 [Compound I-208]
Lab note: record which item had the higher IC50, P or Q . Write down the label of the entry you select.
Q
(Q: 250 nM, P: 9.22 nM)
